- method notes: Tested for the velocity of 2.8 mM compound relative to that of 2.8 mM MgATP in the assay
reported endpoint: Velocity (%)

> print(dat)
                            smiles.structure  scale.unit  result.operator  number
 1  O=C(CI)NCCCCCCC(=O)NCCCCCCNc1ncnc2c1ncn2[C@@H]1O[C@H](COP(=O)(O)OP(=O)(O)OP(=O)(O)O)[C@@H](O)[C@H]1O           %                =      41
 2  O=C(CI)NCCC(=O)NCCCCCCNc1ncnc2c1ncn2[C@@H]1O[C@H](COP(=O)(O)OP(=O)(O)OP(=O)(O)O)[C@@H](O)[C@H]1O           %                =      53
 3  CN(CCCN(C)C(=O)CCCNc1ncnc2c1ncn2[C@@H]1O[C@H](COP(=O)(O)OP(=O)(O)OP(=O)(O)O)[C@@H](O)[C@H]1O)C(=O)CCCNC(=O)CI           %                >      14
 4  CN(CCCCCCN(C)c1ncnc2c1ncn2[C@@H]1O[C@H](COP(=O)(O)OP(=O)(O)OP(=O)(O)O)[C@@H](O)[C@H]1O)C(=O)CCCCCCNC(=O)CI           %                =      57
 5  O=C(CI)NCC(=O)NCCCCCCNc1ncnc2c1ncn2[C@@H]1O[C@H](COP(=O)(O)OP(=O)(O)OP(=O)(O)O)[C@@H](O)[C@H]1O           %                =      63
 6  CC(=O)NCCCCCC(=O)N(C)CCCCN(C)c1ncnc2c1ncn2[C@@H]1O[C@H](COP(=O)(O)OP(=O)(O)OP(=O)(O)O)[C@@H](O)[C@H]1O           %                =      41
 7  CN(CCCN(C)C(=O)CCCCNc1ncnc2c1ncn2[C@@H]1O[C@H](COP(=O)(O)OP(=O)(O)OP(=O)(O)O)[C@@H](O)[C@H]1O)C(=O)CCCCNC(=O)CI           %                >      34
 8  O=C(CI)NCCCCCC(=O)NCCCCCCNc1ncnc2c1ncn2[C@@H]1O[C@H](COP(=O)(O)OP(=O)(O)OP(=O)(O)O)[C@@H](O)[C@H]1O           %                =      37
 9  O=C(CI)NCCCCC(=O)NCCCCCCNc1ncnc2c1ncn2[C@@H]1O[C@H](COP(=O)(O)OP(=O)(O)OP(=O)(O)O)[C@@H](O)[C@H]1O           %                =      39
10  O=C(CI)NCCCCNc1ncnc2c1ncn2[C@@H]1O[C@H](COP(=O)(O)OP(=O)(O)OP(=O)(O)O)[C@@H](O)[C@H]1O           %                =      68
11  Nc1ncnc2c1ncn2[C@@H]1O[C@H](COP(=O)(O)OP(=O)(O)OP(=O)(O)O)[C@@H](O)[C@H]1O           %                =     100
12  O=C(CI)NCCNc1ncnc2c1ncn2[C@@H]1O[C@H](COP(=O)(O)OP(=O)(O)OP(=O)(O)O)[C@@H](O)[C@H]1O           %                =      35
13  CN(CCCCN(C)C(=O)CCCCNc1ncnc2c1ncn2[C@@H]1O[C@H](COP(=O)(O)OP(=O)(O)OP(=O)(O)O)[C@@H](O)[C@H]1O)C(=O)CCCCNC(=O)CI           %                =      34

Reference source: ChEMBL document CHEMBL1122206
